# Tested on: SNB-78 CNS
# method: NCI tumour cell line growth inhibition, 48 h
Measured TGI, listed per entry.

# compound, TGI
data = [
    ("OC1(c2ccccc2)OC(C#Cc2ccccc2)(c2ccccc2)c2ccccc21 (configuration not stated)", "23.2 µM"),
    ("O=[N+]([O-])c1cnn(C2=CNc3ccccc3N=C2)c1", "> 100 µM"),
    ("Cc1ccc(-c2cc(-c3ccccc3)c(C#N)c(=O)n2C2OC(CO)C(O)C(O)C2O)cc1 (configuration not stated)", "> 100 µM"),
    ("CN(C)CCNC(=O)c1cc(Cl)cc2ccc(-c3ccccc3)nc12", "24.9 µM"),
    ("Cc1cc(C)nc(NS(=O)(=O)c2ccc(Nc3c4ccccc4nc4c(C(=O)N5CCN(CCOS(C)(=O)=O)CC5)cccc34)cc2)n1", "> 100 µM"),
    ("O=C(c1ccncc1)n1nc(-c2ccccc2)c(N=Nc2ccccc2[N+](=O)[O-])c1-c1ccccc1", "> 100 µM"),
    ("COc1ccc(N2C(=O)[C@H]3CC(C)c4c([nH]c5ccccc45)[C@H]3C2=O)cc1 (some centres not stated)", "> 59.5 µM"),
    ("Cc1cccc(-n2c(=S)[nH]c3c(sc(=O)n3-c3ccccc3C)c2=O)c1", "> 100 µM"),
    ("O=C(N/N=C(/CCN1CCCC1)CC(c1ccccc1)c1c(O)c2ccccc2oc1=O)c1ccncc1 (configuration not stated)", "> 100 µM"),
    ("CCC1=C(C(C)=O)[C@@H]2CCCCC[C@@H](C(=O)OC)C2C1=O (some centres not stated)", "> 100 µM"),
    ("CN1CC[C@]2(C)c3ccc(O)cc3CC3CCCC1C32C (some centres not stated)", "> 100 µM"),
    ("CN(C)CC1CCC/C1=N\\O (configuration not stated)", "> 100 µM"),
]

----------
# System: HL-60(TB) leukemia
# method: NCI tumour cell line growth inhibition, 48 h; in the data active = GI50 below about 0.43 µM; inactive = the rest
Classes used: active, inactive

# compound, label_value
data = [
    ("COc1ccc(Cn2cc3c(c2)-c2oncc2CC3)cc1", "inactive"),
    ("COc1cc(/C=C2\\C(=O)Nc3ccc(N(C)C)cc32)cc(OC)c1OC", "inactive"),
    ("CCOc1cccc(/C=N/NC(=O)C(=O)Nc2cccc(C(F)(F)F)c2)c1O", "inactive"),
    ("COc1cc(C(=O)Nc2cc3c(cc2Oc2cc(C)cc(C)c2)C(=O)N(C)[C@@H](CC(=O)N(C)O)C(=O)N3)c(Br)c(OC)c1OC", "active"),
    ("O=C1c2cc(Cl)ccc2-c2c1c1ccc([N+](=O)[O-])cc1c(=O)n2CCCBr", "inactive"),
    ("CC[PH+](CC)CC.O=COC1OC([S-])C(OC=O)C(OC=O)C1OC=O.[Au+] (stereo not given)", "inactive"),
    ("CC[O-].CC[O-].O=S(=O)([O-])c1ccc([O-])c2ncccc12.O=S(=O)([O-])c1ccc([O-])c2ncccc12.[Ti+4]", "inactive"),
    ("Cc1cc(S(=O)(=O)NC#N)c(S/C(=N\\Nc2ccc([N+](=O)[O-])cc2)c2ccc(Cl)cc2)cc1Cl", "inactive"),
    ("OCCNc1ncnc2c1ncn2Cc1cccc(COc2cccc(OCc3cccc(Cn4cnc5c(NCCO)ncnc54)c3)c2)c1", "inactive"),
    ("NC(N)=NCCC1OC(=O)C2=C1c1c(O)ccc3nccc(c13)O2 (stereo not given)", "inactive"),
    ("NC(=O)c1cc2c3ccccc3ccn2c1-c1ccccc1", "active"),
    ("COc1ccc(C2=NN(C=O)C(c3cccc(Nc4ccnc5cc(Cl)ccc45)c3)C2)cc1 (stereo not given)", "inactive"),
    ("Cc1cc2c(cc1Cl)SC1=NN(C)C(N(C)C)N1S2(=O)=O (stereo not given)", "inactive"),
    ("Nc1ccccc1C#C/C=C\\C#Cc1ccccc1[N+](=O)[O-]", "inactive"),
    ("O=C(O)C1CCCCC1C(=O)O.[NH-]C1CCC1.[NH2-].[Pt+2] (stereo not given)", "inactive"),
]

----------
Measured GI50, listed per entry.
# Test system: UO-31 renal
# method: NCI tumour cell line growth inhibition, 48 h

# compound, study_system, GI50
data = [
    ("N#CCCN(CCC#N)c1ccc(C(Sc2ccccc2)C(NC(=O)c2cc([N+](=O)[O-])ccc2Cl)C(=O)Sc2ccccc2)cc1 (centres undefined)", "UO-31 renal", "1.11 µM"),
    ("CN(C)CCCNC(=O)c1ccc2c(c1)oc1cc3ccccc3c(=O)n12", "UO-31 renal", "8.75 µM"),
    ("CCn1c2ccc(O)cc2c2c(C)c3c[n+](C)ccc3c(C)c21", "UO-31 renal", "14.9 µM"),
    ("COc1ccc(-c2ccc(-c3ccc(C(=N)N)cn3)o2)cc1", "UO-31 renal", "2.68 µM"),
    ("Nc1ccccc1C#C/C=C\\C#Cc1ccccc1[N+](=O)[O-]", "UO-31 renal", "10.5 µM"),
    ("Cc1nc2sccn2c1-c1csc(Nc2cccc(Cl)c2C)n1", "UO-31 renal", "3.05 µM"),
    ("CC[O-].CC[O-].O=S(=O)([O-])c1ccc([O-])c2ncccc12.O=S(=O)([O-])c1ccc([O-])c2ncccc12.[Ti+4]", "UO-31 renal", "74.4 µM"),
    ("COC(=O)C1CCc2sc3ncnc(Nc4cn[nH]c4C(=O)Nc4ccc(CN5CCN(C)CC5)cc4)c3c21 (centres undefined)", "UO-31 renal", "0.455 µM"),
    ("O=C1NC(=S)S/C1=C(/C=C(\\CC(=O)c1ccccc1)c1ccc(Cl)cc1)c1ccccc1", "UO-31 renal", "48.6 µM"),
]

----------
# Tested on: T-47D breast
# method: NCI tumour cell line growth inhibition, 48 h
readout_name: log10 of TGI (log10 of the value in µM)

# compound, study_system, log10 of TGI
records = [
    ("COc1ccc(-c2ccc(-c3ccc(C(=N)N)cn3)o2)cc1", "T-47D breast", 1.32),
    ("COc1ccc(N2C(=O)[C@H]3CC(C)c4c([nH]c5ccccc45)[C@H]3C2=O)cc1 (some centres not stated)", "T-47D breast", 1.84),
    ("C/C(Cl)=N\\OC(=O)Nc1ccc(C)cc1", "T-47D breast", 1.68),
    ("CCn1c2ccc(C(=O)CCCN3CCCCC3)cc2c2cc(C(=O)CCCN3CCCCC3)ccc21", "T-47D breast", 1.70),
    ("COc1ccccc1C1Nn2c(nc3ccccc3c2=O)N1c1ccc(C)cc1 (configuration not stated)", "T-47D breast", 1.32),
    ("CCOc1ccc(Nc2nc(N)nc(N)c2N)cc1", "T-47D breast", 1.73),
    ("CC1CCC2(NC1)OC1CC3C4CC=C5CC(OC6OC(CO)C(OC7OC(C)C(O)C(O)C7O)C(O)C6OC6OC(C)C(O)C(O)C6O)CCC5(C)C4CCC3(C)C1C2C (configuration not stated)", "T-47D breast", 1.46),
    ("CCC[n+]1cc2cc(OC)c(OC)cc2c2c1-c1cc3c(cc1C2)OCO3", "T-47D breast", 0.59),
    ("COc1cc(-c2n/c(=C\\c3c(O)[nH]c4ccc(Cl)cc34)cc3c2=Nc2ccccc2-3)ccc1F", "T-47D breast", 0.54),
    ("CN(C)CCCNC(=O)c1cc(NC(=O)c2cc(NC(=O)CCCn3c4ccccc4c4ccccc43)cn2C)cn1C", "T-47D breast", 1.45),
    ("CCOc1cc(/C=N\\Nc2nnc(C)n2N)c(C)cc1N(CCCl)CCCl", "T-47D breast", 1.16),
    ("Cc1cc2c(cc1C)N(C(=O)CCl)CCN2C(=O)CCl", "T-47D breast", 0.60),
]

----------
Measured TGI, listed per entry.
# Test system: NCI/ADR-RES ovarian
# method: NCI tumour cell line growth inhibition, 48 h
readout_name: TGI (µM)

# molecule, study_system, readout_name, measurement_unit, value_operator, measured_value
data = [
    ("COc1cc2cc(C(=O)N3C[C@H](CCl)c4c3cc(N)c3ccccc43)[nH]c2c(OC)c1OC", "NCI/ADR-RES ovarian", "TGI", "µM", "=", 7.69),
    ("C[C@]12CCC(=O)[C@@H](CCC3=CC(=O)C=CC3=O)[C@@H]1CCC2=O", "NCI/ADR-RES ovarian", "TGI", "µM", ">", 100),
    ("CCC(O)(Cc1ccc(OC)cc1)c1ccc(OC)cc1 (centres undefined)", "NCI/ADR-RES ovarian", "TGI", "µM", ">", 100),
    ("CC(C)c1cccc(C(C)C)c1NC(=O)/C(CC(=O)CC(c1ccccc1)c1c(O)c2ccccc2oc1=O)=N/O (centres undefined)", "NCI/ADR-RES ovarian", "TGI", "µM", ">", 100),
    ("Fc1cc2[nH]ncc2c2c3c(c(-c4cn[nH]c4C(F)(F)F)nc12)C1CCC3C1 (centres undefined)", "NCI/ADR-RES ovarian", "TGI", "µM", "=", 16.1),
    ("CCOc1cccc(/C=N/NC(=O)C(=O)Nc2cccc(C(F)(F)F)c2)c1O", "NCI/ADR-RES ovarian", "TGI", "µM", "=", 37.1),
    ("COc1ccc(N2C(=O)[C@H]3CC(C)c4c([nH]c5ccccc45)[C@H]3C2=O)cc1 (some centres undefined)", "NCI/ADR-RES ovarian", "TGI", "µM", "=", 12.4),
    ("CC(=O)OCC1OC(n2c(-c3ccccc3)c(N=Nc3ccccc3)c(C)c(C#N)c2=S)C(OC(C)=O)C(OC(C)=O)C1OC(C)=O (centres undefined)", "NCI/ADR-RES ovarian", "TGI", "µM", ">", 100),
    ("O=C1C=CC=C/C1=C1\\N=C(c2ccccc2OCC(=O)c2ccccc2)SS1", "NCI/ADR-RES ovarian", "TGI", "µM", ">", 100),
]
